Recorded measurements of activation at 50 µM, one per entry
system: HaCaT cells; assay: Relief of 5-FU proliferative toxicity to HaCaT cells (CCK-8 cell survival); type: cell-based; conditions: Homo sapiens, HaCaT; increase vs Group of 5-FU; 5-FU 20 μM; compound 50 μM; 48 h; read-out: Cell Survival Rate
MEASURED METRIC: activation at 50 µM

COMPOUND: CCCC(=O)OC[C@H]1O[C@@H](n2cc(C)c(=O)[nH]c2=O)C[C@@H]1OC(=O)CCC [T6]
MEASURED ON: HaCaT cells
MEASURED METRIC: activation at 50 µM
DATA VALUE: 65 to 75%

COMPOUND: Cc1cn([C@H]2C[C@H](OC(=O)C3CCCC3)[C@@H](COC(=O)C3CCCC3)O2)c(=O)[nH]c1=O [T8]
MEASURED ON: HaCaT cells
MEASURED METRIC: activation at 50 µM
DATA VALUE: 32 to 39%

COMPOUND: Cc1cn([C@H]2C[C@H](OC(=O)Cc3ccccc3)[C@@H](COC(=O)Cc3ccccc3)O2)c(=O)[nH]c1=O [T10]
MEASURED ON: HaCaT cells
MEASURED METRIC: activation at 50 µM
DATA VALUE: 65 to 75%

COMPOUND: Cc1cn([C@H]2C[C@H](O)[C@@H](COC(=O)OC3CC3)O2)c(=O)[nH]c1=O [T11]
MEASURED ON: HaCaT cells
MEASURED METRIC: activation at 50 µM
DATA VALUE: 35 to 45%

COMPOUND: CC(=O)OCC1OC(n2cc(C)c(=O)[nH]c2=O)CC1OC(C)=O (stereo not drawn) [T1]
MEASURED ON: HaCaT cells
MEASURED METRIC: activation at 50 µM
DATA VALUE: 21 to 26%

COMPOUND: Cc1cn([C@H]2C[C@H](OC(=O)C3CC3)[C@@H](COC(=O)C3CC3)O2)c(=O)[nH]c1=O [T9]
MEASURED ON: HaCaT cells
MEASURED METRIC: activation at 50 µM
DATA VALUE: 24 to 31%

---

tested on: HaCaT cells; experiment: Relief of 5-FU proliferative toxicity to HaCaT cells (CCK-8 cell survival); format: cell-based; conditions: 5-Fu 20 μM; selected compound final concentration 6.25 μM; HaCaT cells
MEASURED METRIC: Cell Survival Rate (increased percentage of cell survival compared with the Group of 5-FU)

MOLECULE: Cc1cn([C@H]2C[C@H](OC(=O)C(C)c3cccc(Oc4ccccc4)c3)[C@@H](COC(=O)C(C)c3cccc(Oc4ccccc4)c3)O2)c(=O)[nH]c1=O (stereo partly drawn)
DATA VALUE: 34%-41%

MOLECULE: Cc1cn([C@H]2C[C@H](O)[C@@H](COC(=O)[C@@H](C)c3ccc(CC(C)C)cc3)O2)c(=O)[nH]c1=O
DATA VALUE: 41%-47%

MOLECULE: Cc1ccc(C(=O)c2ccc(CC(=O)O[C@H]3C[C@H](n4cc(C)c(=O)[nH]c4=O)O[C@@H]3CO)n2C)cc1
DATA VALUE: 59%-67%

MOLECULE: Cc1cn([C@H]2C[C@H](O)[C@@H](COC(=O)C(C)c3ccc(CC(C)C)cc3)O2)c(=O)[nH]c1=O (stereo partly drawn)
DATA VALUE: 45%-53%

MOLECULE: CC1=C(CC(=O)OC[C@H]2O[C@@H](n3cc(C)c(=O)[nH]c3=O)C[C@@H]2O)c2cc(F)ccc2/C1=C\c1ccc([S+](C)[O-])cc1 (stereo partly drawn)
DATA VALUE: 47%-56%

MOLECULE: Cc1cn([C@H]2C[C@H](O)[C@@H](COC(=O)Cc3ccccc3Nc3c(Cl)cccc3Cl)O2)c(=O)[nH]c1=O
DATA VALUE: 67%-74%

MOLECULE: CCC(CC)COC(=O)[C@H](C)N[P@](=O)(OC[C@H]1O[C@@H](n2cc(C)c(=O)[nH]c2=O)C[C@@H]1O)Oc1ccccc1
DATA VALUE: 66%-73%

MOLECULE: Cc1ccc(C(=O)c2ccc(CC(=O)OC[C@H]3O[C@@H](n4cc(C)c(=O)[nH]c4=O)C[C@@H]3O)n2C)cc1
DATA VALUE: 38%-46%

MOLECULE: Cc1cn([C@H]2C[C@H](OC(=O)[C@@H](C)c3ccc(CC(C)C)cc3)[C@@H](CO)O2)c(=O)[nH]c1=O
DATA VALUE: 13%-20%

MOLECULE: Cc1cn([C@H]2C[C@H](OC(=O)C(C)c3cccc(Oc4ccccc4)c3)[C@@H](CO)O2)c(=O)[nH]c1=O (stereo partly drawn)
DATA VALUE: 91%-98%

MOLECULE: COc1ccc2cc([C@H](C)C(=O)O[C@H]3C[C@H](n4cc(C)c(=O)[nH]c4=O)O[C@@H]3CO)ccc2c1
DATA VALUE: 85%-92%

MOLECULE: Cc1cn([C@H]2C[C@H](O)[C@@H](COC(=O)[C@H](C)c3ccc(CC(C)C)cc3)O2)c(=O)[nH]c1=O
DATA VALUE: 29%-36%

MOLECULE: Cc1cn([C@H]2C[C@H](O)[C@@H](COC(=O)C(C)c3cccc(C(=O)c4ccccc4)c3)O2)c(=O)[nH]c1=O (stereo partly drawn)
DATA VALUE: 36%-42%

MOLECULE: Cc1cn([C@H]2C[C@H](O)[C@@H](COC(=O)C(C)c3cccc(Oc4ccccc4)c3)O2)c(=O)[nH]c1=O (stereo partly drawn)
DATA VALUE: 54%-61%

MOLECULE: CCC(CC)COC(=O)[C@H](C)N[P@@](=O)(Oc1ccccc1)O[C@H]1C[C@H](n2cc(C)c(=O)[nH]c2=O)O[C@@H]1CO
DATA VALUE: 68%-74%

---

system: HaCaT cells; assay: Relief of 5-FU proliferative toxicity to HaCaT cells (CCK-8 cell survival); format: cell-based; settings: 5-Fu 20 μM; selected compound final concentration 25 μM; HaCaT cells
MEASURED METRIC: Cell Survival Rate (increased percentage of cell survival compared with the Group of 5-FU)

COMPOUND: Cc1cn([C@H]2C[C@H](O)[C@@H](COC(=O)C3CCn4c(C(=O)c5ccccc5)ccc43)O2)c(=O)[nH]c1=O (stereo partly shown)
DATA VALUE: 43%-51%
//
COMPOUND: COc1ccc2c(c1)c(CC(=O)OC[C@H]1O[C@@H](n3cc(C)c(=O)[nH]c3=O)C[C@@H]1O)c(C)n2C(=O)c1ccc(Cl)cc1
DATA VALUE: 58%-65%
//
COMPOUND: Cc1ccc(Nc2c(F)cccc2Cl)c(CC(=O)OC[C@H]2O[C@@H](n3cc(C)c(=O)[nH]c3=O)C[C@@H]2O)c1
DATA VALUE: 84%-91%
//
COMPOUND: Cc1cn([C@H]2C[C@H](O)[C@@H](COC(=O)[C@H](C)c3ccc(CC(C)C)cc3)O2)c(=O)[nH]c1=O
DATA VALUE: 53%-60%
//
COMPOUND: COc1ccc2cc([C@@H](C)C(=O)OC[C@H]3O[C@@H](n4cc(C)c(=O)[nH]c4=O)C[C@@H]3O)ccc2c1
DATA VALUE: 47%-55%
//
COMPOUND: CCC(CC)COC(=O)[C@H](C)N[P@](=O)(OC[C@H]1O[C@@H](n2cc(C)c(=O)[nH]c2=O)C[C@@H]1O)Oc1ccccc1
DATA VALUE: 77%-85%
//
COMPOUND: CC1=C(CC(=O)OC[C@H]2O[C@@H](n3cc(C)c(=O)[nH]c3=O)C[C@@H]2O)c2cc(F)ccc2/C1=C\c1ccc([S+](C)[O-])cc1 (stereo partly shown)
DATA VALUE: 58%-65%

---

tested on: HaCaT cells; assay: Relief of 5-FU proliferative toxicity to HaCaT cells (CCK-8 cell survival); type: cell-based; conditions: 5-Fu 20 μM; selected compound final concentration 25 μM; HaCaT cells
MEASURED METRIC: Cell Survival Rate (increased percentage of cell survival compared with the Group of 5-FU)

COMPOUND: Cc1cn([C@H]2C[C@H](O)[C@@H](COC(=O)[C@H](C)c3ccc(-c4ccccc4)c(F)c3)O2)c(=O)[nH]c1=O
MEASURED ON: HaCaT cells
DATA VALUE: 54%-62%
--
COMPOUND: Cc1cn([C@H]2C[C@H](OC(=O)[C@@H](C)c3ccc(CC(C)C)cc3)[C@@H](CO)O2)c(=O)[nH]c1=O
MEASURED ON: HaCaT cells
DATA VALUE: 53%-60%
--
COMPOUND: Cc1cn([C@H]2C[C@H](OC(=O)C(C)c3cccc(Oc4ccccc4)c3)[C@@H](CO)O2)c(=O)[nH]c1=O (some centres unmarked)
MEASURED ON: HaCaT cells
DATA VALUE: 99%-106%
--
COMPOUND: Cc1ccc(C(=O)c2ccc(CC(=O)OC[C@H]3O[C@@H](n4cc(C)c(=O)[nH]c4=O)C[C@@H]3O)n2C)cc1
MEASURED ON: HaCaT cells
DATA VALUE: 53%-61%
--
COMPOUND: Cc1cn([C@H]2C[C@H](O)[C@@H](COC(=O)C(C)c3cccc(Oc4ccccc4)c3)O2)c(=O)[nH]c1=O (some centres unmarked)
MEASURED ON: HaCaT cells
DATA VALUE: 49%-57%
